test system: NOMO1; assay: cell viability relative to DMSO control; higher = less cytotoxic; conditions: RPMI 5 mM glucose + 10% dialyzed FBS; 48 h; 46.1 µM
Cut-off 30% on cell viability: below means Yes, at or above means No.

State whether 30% exceeds cell viability recorded for Cc1c(C(=O)c2cccc3ccccc23)c2cccc3c2n1[C@H](CN1CCOCC1)CO3 .
Yes

State whether 30% exceeds cell viability recorded for CC(C)(Sc1ccc(CCN(CCCCC2CCCCC2)C(=O)NC2CCCCC2)cc1)C(=O)O .
No

State whether 30% exceeds cell viability recorded for O=C(NCC1CCOCC1)c1cnc(Nc2ccc(Cl)cc2Cl)nc1C(F)(F)F .
No

State whether 30% exceeds cell viability recorded for Nc1nc(NCCNc2ncc(-n3ccnc3)c(-c3ccc(Cl)cc3Cl)n2)ccc1[N+](=O)[O-] .
No

State whether 30% exceeds cell viability recorded for COc1ccc([S+](=O)([O-])Nc2cccnc2Nc2ccc(O)cc2)cc1 .
No

State whether 30% exceeds cell viability recorded for C[N]1C=C(C=N1)C2=CC=C3N=CC\4=C(N(C(=O)\C=C4)C5=CC6=C(CCN6C(=O)C=C)C=C5)C3=C2 .
Yes

State whether 30% exceeds cell viability recorded for N#Cc1ccc(NC(=O)Nc2ccccc2Br)c2nn[nH]c12 .
No

State whether 30% exceeds cell viability recorded for CC(C)c1c(C(=O)Nc2ccccc2)c(-c2ccccc2)c(-c2ccc(F)cc2)n1CC[C@@H](O)C[C@@H](O)CC(=O)[O-] .
No

State whether 30% exceeds cell viability recorded for Cc1ccc(-c2cc(C(F)(F)F)nn2-c2ccc([S+](N)(=O)[O-])cc2)cc1 .
No

State whether 30% exceeds cell viability recorded for NC[C@H]1O[C@H](O[C@H]2[C@H](O)[C@@H](O[C@H]3O[C@H](CO)[C@@H](O)[C@H](N)[C@H]3O)[C@H](N)C[C@@H]2N)[C@H](N)C[C@@H]1O .
No

State whether 30% exceeds cell viability recorded for C[N+]1(C)[C@@H]2CC(OC(=O)C(O)(c3cccs3)c3cccs3)C[C@H]1[C@@H]1O[C@@H]12 (some centres not stated) .
No

State whether 30% exceeds cell viability recorded for CS[C@H]1SC[C@@H]2C(=O)N(C)[C@H](C(C)C)C(=O)OC[C@H](NC(=O)c3cnc4ccccc4n3)C(=O)N[C@H](C)C(=O)N(C)[C@H]1C(=O)N(C)[C@H](C(C)C)C(=O)OC[C@H](NC(=O)c1cnc3ccccc3n1)C(=O)N[C@H](C)C(=O)N2C .
Yes

State whether 30% exceeds cell viability recorded for Cn1cnc([N+](=O)[O-])c1Sc1ncnc2nc[nH]c12 .
Yes

State whether 30% exceeds cell viability recorded for COc1cc2ncn(-c3cc(OCc4ccccc4C(F)(F)F)c(C(N)=O)s3)c2cc1OC .
Yes

State whether 30% exceeds cell viability recorded for Cc1nc(N)ncc1-c1nc(N2CCOCC2)c2sc(C(C)(C)O)cc2n1 .
Yes

State whether 30% exceeds cell viability recorded for N#CC[C@H](C1CCCC1)n1cc(-c2ncnc3[nH]ccc23)cn1 .
No

Data origin, for the record: the supplement of paper PMC11451515
